# TARGET_ENTITY: AR (cytosol from LnCaP cells) (Homo sapiens, UniProt P10275, T878A)
# Sequence (P10275 whole entry T878A): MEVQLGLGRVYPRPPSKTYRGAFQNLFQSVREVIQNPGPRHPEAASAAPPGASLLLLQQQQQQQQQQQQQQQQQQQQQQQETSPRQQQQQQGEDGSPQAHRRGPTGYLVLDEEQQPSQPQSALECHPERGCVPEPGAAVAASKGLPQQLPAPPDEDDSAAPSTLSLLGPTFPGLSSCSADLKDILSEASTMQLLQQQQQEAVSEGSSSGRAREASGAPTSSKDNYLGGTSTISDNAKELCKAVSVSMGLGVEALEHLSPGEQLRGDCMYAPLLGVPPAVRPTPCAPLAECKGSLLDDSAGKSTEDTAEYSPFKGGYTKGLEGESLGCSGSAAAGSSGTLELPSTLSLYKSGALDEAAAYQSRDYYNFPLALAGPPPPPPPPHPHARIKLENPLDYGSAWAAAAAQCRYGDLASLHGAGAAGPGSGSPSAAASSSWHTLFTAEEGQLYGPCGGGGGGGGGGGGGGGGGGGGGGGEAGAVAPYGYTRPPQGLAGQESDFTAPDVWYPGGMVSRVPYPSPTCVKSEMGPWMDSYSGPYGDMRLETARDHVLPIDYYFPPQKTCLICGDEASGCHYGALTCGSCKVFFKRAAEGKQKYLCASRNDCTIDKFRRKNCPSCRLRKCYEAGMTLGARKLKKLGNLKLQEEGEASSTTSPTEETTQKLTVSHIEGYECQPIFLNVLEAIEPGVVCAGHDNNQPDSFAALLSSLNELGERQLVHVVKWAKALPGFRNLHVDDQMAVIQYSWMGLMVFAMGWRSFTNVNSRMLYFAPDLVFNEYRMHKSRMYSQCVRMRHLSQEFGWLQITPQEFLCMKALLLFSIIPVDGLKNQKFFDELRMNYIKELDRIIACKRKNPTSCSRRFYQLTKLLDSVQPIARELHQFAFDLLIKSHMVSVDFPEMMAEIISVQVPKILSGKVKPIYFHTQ
# TEST_SUMMARY: AR binding assay (3H-R1881 displacement)
PROPERTY_MEASURED: IC50

The cases that follow already have their IC50 on record.
1) CC[C@@]1(O)C(=O)OCc2c1cc1n(c2=O)Cc2cc3c(CN4CCN(C(=O)CCCCCC5CCN(c6ccc(C(=O)N[C@H]7CC[C@H](Oc8ccc(C#N)c(Cl)c8C)CC7)nn6)CC5)CC4)c(O)ccc3nc2-1; 0.01 to 0.1 µM
2) CC[C@@]1(O)C(=O)OCc2c1cc1n(c2=O)Cc2cc3c(CN(C)C)c(OC(=O)N4C[C@H](C)N(C(=O)C5CCN(c6ccc(C(=O)N[C@H]7CC[C@H](N(C)c8ccc(C#N)c(Cl)c8)CC7)nn6)CC5)C[C@H]4C)ccc3nc2-1; 0.01 to 0.1 µM
3) CC[C@@]1(O)C(=O)OCc2c1cc1n(c2=O)Cc2cc3c(CN4CCN(CC5CCN(c6ccc(C(=O)N[C@H]7CC[C@H](N(C)c8ccc(C#N)c(Cl)c8)CC7)nn6)CC5)CC4)c(O)ccc3nc2-1; 0.01 to 0.1 µM

stdin: Look up IC50 of CC[C@@]1(O)C(=O)OCc2c1cc1n(c2=O)Cc2cc3c(CN4CCN(CCCCCCN(C)c5ccc([C@H]6C[C@@]7(C)[C@@H](CC[C@]7(OC(C)=O)C(C)=O)[C@@H]7CCC8=CC(=O)CCC8=C76)cc5)CC4)c(O)ccc3nc2-1 and report it.
stdout: 0.01 to 0.1 µM

stdin: Look up IC50 of CC[C@@]1(O)C(=O)OCc2c1cc1n(c2=O)Cc2c-1nc1cc(F)c(C)c3c1c2[C@@H](NC(=O)COC(=O)N1CCN(CCCCCCN(C)c2ccc([C@H]4C[C@@]5(C)[C@@H](CC[C@]5(OC(C)=O)C(C)=O)[C@@H]5CCC6=CC(=O)CCC6=C54)cc2)CC1)CC3 and report it.
stdout: 0.01 to 0.1 µM

stdin: Look up IC50 of CC[C@@]1(O)C(=O)OCc2c1cc1n(c2=O)Cc2c-1nc1cc(F)c(C)c3c1c2[C@@H](NC(=O)OCc1ccc(NC(=O)[C@H](CCCNC(N)=O)NC(=O)[C@@H](NCCCCCCN(C)c2ccc([C@H]4C[C@@]5(C)[C@@H](CC[C@]5(OC(C)=O)C(C)=O)[C@@H]5CCC6=CC(=O)CCC6=C54)cc2)C(C)C)cc1)CC3 and report it.
stdout: 0.101 to 1 µM

stdin: Look up IC50 of CC[C@@]1(OC(=O)CN(C)C)C(=O)OCc2c1cc1n(c2=O)Cc2cc3c(CN(C)C)c(OC(=O)N4CCN(CCCCCCN(C)c5ccc([C@H]6C[C@@]7(C)[C@@H](CC[C@]7(OC(C)=O)C(C)=O)[C@@H]7CCC8=CC(=O)CCC8=C76)cc5)CC4)ccc3nc2-1 and report it.
stdout: 0.01 to 0.1 µM

stdin: Look up IC50 of CC[C@@]1(O)C(=O)OCc2c1cc1n(c2=O)Cc2c-1nc1cc(F)c(C)c3c1c2[C@@H](NCC1CCN(CC2CCN(C(=O)CN(C)c4ccc([C@H]5C[C@@]6(C)[C@@H](CC[C@]6(OC(C)=O)C(C)=O)[C@@H]6CCC7=CC(=O)CCC7=C65)cc4)CC2)CC1)CC3 and report it.
stdout: < 0.01 µM
